# System: NCI-H460 lung
# procedure details: NCI tumour cell line growth inhibition, 48 h
Could you please report measured TGI for the items listed next?

// TGI lookup, compound = O=C(O)C(Cc1cnc[nH]1)N=Cc1nc(-c2ccccc2)oc1O (centres undefined) , result: > 100 µM

// TGI lookup, compound = CCSc1nc(N2CCCCC2)c2cn[nH]c2n1 , result: 76.5 µM

// TGI lookup, compound = O=c1oc2cccnc2n1CCN1CCN(c2ccc(Oc3ccccc3)cc2)CC1 , result: > 100 µM

// TGI lookup, compound = Cn1c(=O)c2c(ncn2CCSS(=O)(=O)O)n(C)c1=O , result: > 100 µM

// TGI lookup, compound = O=C(N/N=c1/ccoc2cccnc12)N1CCN(c2ncccn2)CC1 , result: 11.1 µM

// TGI lookup, compound = COP(=O)(OC)C(O)/C=C(\Cl)c1ccc(Cl)cc1 (centres undefined) , result: > 100 µM

// TGI lookup, compound = O=C(O)/C=C/c1cnc[nH]1 , result: > 500 µM

// TGI lookup, compound = O=C(CC(O)c1ccncc1)c1ccccc1 (centres undefined) , result: 89.2 µM

// TGI lookup, compound = Cc1ccc(S(=O)C[C@@]2(C(F)F)NC(=O)NC2=O)cc1 (some centres undefined) , result: > 100 µM

// TGI lookup, compound = N#CCc1ccc(/C(C#N)=C2/OC(=N)C(c3ccc(CC#N)cc3)C2=O)cc1 (centres undefined) , result: > 100 µM

// TGI lookup, compound = Cc1cc(O)ccc1O , result: > 100 µM

// TGI lookup, compound = O=c1oc2ccc(F)cc2c(=O)n1-c1ccc(Cl)cc1F , result: 12.2 µM

// TGI lookup, compound = COc1cc(CNC(=O)[C@H](Cc2ccc(O)cn2)NC(C)=O)cc(OC)c1 , result: > 100 µM

// TGI lookup, compound = CCCCCCCCCCCCSC(=NC)NC , result: 3.52 µM

// TGI lookup, compound = CC(C)c1ccc2c(c1)C=C1OC(=O)[C@]3(C)CCC[C@@]2(C)C13 (some centres undefined) , result: > 100 µM

// TGI lookup, compound = CC(C)C(Sc1nc(-c2ccccc2)c(-c2ccccc2)[nH]1)C(=O)N/N=C/c1ccc([N+](=O)[O-])cc1 (centres undefined) , result: 34.1 µM

// TGI lookup, compound = O[C@@H]1CCCN1Cc1cc2cc3c(cc2c2cc(OCc4ccccc4)ccc12)OCO3 , result: 7.38 µM

// TGI lookup, compound = COC1=CC(=O)c2c(O)ccc(O)c2C1=O , result: 12.9 µM

// TGI lookup, compound = CC(=O)N1C(C(=O)NNc2ccccc2)CSC1c1ccccc1 (centres undefined) , result: > 100 µM

// TGI lookup, compound = O=C(Nc1cccc([N+](=O)[O-])c1)c1ccc2ccccc2c1O , result: > 100 µM

// TGI lookup, compound = COc1ccc(N(C)c2nc(Cl)nc3ccn(C)c23)cc1 , result: > 100 µM

// TGI lookup, compound = O=C1SC(c2ccccc2)(c2ccccc2)c2ccccc21 , result: > 100 µM

// TGI lookup, compound = NC1=NN(c2ccccc2)C2(c3ccncc3C(=O)O)C1C(N)=NN2c1ccccc1 (centres undefined) , result: > 100 µM

// TGI lookup, compound = COc1ccc(-c2oc3cc(OC)c(OC)c(OC)c3c(=O)c2OC)cc1OC , result: > 100 µM
